Value source: paper PMC5537305

# EXPERIMENTAL_DETAILS: Aqueous solubilization in 1/15 M phosphate buffer (pH 7.4) under UV, visible light or dark, with cis ratio in solution by HPLC
# Format: physicochemical
# TEST_CONTEXT: phosphate buffer, pH 7.4, 46 °C, after 24 h

| SUBSTANCE_SMILES | solubility at 24 h (µg/mL) |
| --- | --- |
| CC(C)n1nc(/N=N/c2ccccc2)c2c(N)ncnc21 | 3.2 |

====

# EXPERIMENTAL_DETAILS: Aqueous solubilization in 1/15 M phosphate buffer (pH 7.4) under UV, visible light or dark, with cis ratio in solution by HPLC
# Type: physicochemical
# TEST_CONTEXT: phosphate buffer, pH 7.4, Visible light, 37 °C, shake time 5 h; read-out: Solubilized 3

| SUBSTANCE_SMILES | solubility at 5 h (µg/mL) |
| --- | --- |
| CC(C)n1nc(/N=N/c2ccccc2)c2c(N)ncnc21 | 5.1 |
